// data source = patent US6897237B2

# System Name: MMP-9 (Homo sapiens)
# Construct: endogenous in cells; purified in house from conditioned medium
# Sequence (P14780 107-707 limits assumed): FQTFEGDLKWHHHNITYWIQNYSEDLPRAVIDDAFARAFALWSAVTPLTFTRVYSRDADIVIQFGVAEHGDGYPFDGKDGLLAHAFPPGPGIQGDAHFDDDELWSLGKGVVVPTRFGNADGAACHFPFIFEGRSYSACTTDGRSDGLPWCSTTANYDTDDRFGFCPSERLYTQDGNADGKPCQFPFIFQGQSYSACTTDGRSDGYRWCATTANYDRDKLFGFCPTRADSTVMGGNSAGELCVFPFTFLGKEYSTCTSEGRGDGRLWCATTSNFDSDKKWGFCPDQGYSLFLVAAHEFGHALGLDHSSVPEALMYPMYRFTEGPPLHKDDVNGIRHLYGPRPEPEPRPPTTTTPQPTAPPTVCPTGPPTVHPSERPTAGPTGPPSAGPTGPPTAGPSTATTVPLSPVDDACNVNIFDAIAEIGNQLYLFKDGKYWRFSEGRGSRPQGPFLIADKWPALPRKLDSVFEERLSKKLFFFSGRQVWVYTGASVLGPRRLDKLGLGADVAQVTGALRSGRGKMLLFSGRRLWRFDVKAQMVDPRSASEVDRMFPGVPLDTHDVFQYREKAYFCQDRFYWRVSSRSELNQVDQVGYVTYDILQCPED
# Procedure Text: Assay for inhibitory activities on MMPs (fluorogenic peptide substrate): MMP-9
# Experimental Context: substrate MOCAc-Pro-Leu-Gly-Leu-A2Pr(DNP)-Ala-Arg-NH2
pIC50: −log10 of the molar value.
Assay Readout: pIC50

In the examples that follow, each entry is paired with its recorded pIC50.
CC(C)C[C@H](NS(=O)(=O)c1ccc(C#Cc2ccc3ccccc3c2)cc1)C(=O)O [Compound A-11]: 5.90
CC(C)[C@H](NS(=O)(=O)c1ccc(C#Cc2ccc3ccccc3c2)s1)C(=O)O [Compound B-5]: 5.49
C[C@H](NS(=O)(=O)c1ccc(C#Cc2ccc3ccccc3c2)cc1)C(=O)O [Compound A-8]: 5.48
O=C(Nc1ccc(S(=O)(=O)N[C@@H](Cc2ccccc2)C(=O)O)cc1)c1ccc2ccccc2c1 [Compound D-2]: 5.18

(1) O=C(O)CNS(=O)(=O)c1ccc(C#Cc2ccc3ccccc3c2)s1 [Compound B-9]
(2) O=C(O)CNS(=O)(=O)c1ccc(C#Cc2ccc3ccccc3c2)cc1 [Compound A-9]
Given 1 and given 2 , which shows the smaller recorded pIC50? Lab log: write the label of the selected item as the result.
1
(1: 5.37, 2: 5.74)

----------
# System Name: MMP-12 catalytic domain (Homo sapiens, UniProt P39900)
# Construct: catalytic domain(^100Phe˜^263Gly); His-tag; enterokinase digestion-site
# Sequence (P39900 100-263): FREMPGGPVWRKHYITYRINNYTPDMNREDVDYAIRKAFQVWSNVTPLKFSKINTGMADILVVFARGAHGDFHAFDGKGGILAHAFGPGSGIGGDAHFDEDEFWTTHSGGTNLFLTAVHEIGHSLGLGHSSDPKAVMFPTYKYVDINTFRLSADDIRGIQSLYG
# Procedure Text: Assay for inhibitory activities on MMPs (fluorogenic peptide substrate): MMP-12
# Experimental Context: substrate MOCAc-Pro-Leu-Gly-Leu-A2Pr(DNP)-Ala-Arg-NH2
# Procedure: In regard to MMP-12, catalytic domain(^100Phe˜^263Gly) was amplified with RT-PCR from Human Placenta Total RNA. […] The enzymatic activity on MMPs was analyzed by the method described in “C. […] IC50 values were calculated by using the following formula and each fluorescence values of above four methods (A to D). […]
Assay Readout: IC50 (nM)

C[C@@H](NS(=O)(=O)c1ccc(C#Cc2ccc3ccccc3c2)s1)C(=O)O: 23

(P) CSCC[C@H](NS(=O)(=O)c1ccc(C#Cc2ccc3ccccc3c2)s1)C(=O)O
(Q) O=C(O)[C@H](Cc1ccccc1)NS(=O)(=O)c1ccc(C#Cc2ccc3ccccc3c2)cc1
Given P and given Q , which shows the smaller recorded IC50? Lab log: write the label of the selected item as the result.
Q

----------
# System Name: MMP-9 (Homo sapiens)
# Construct: endogenous in cells; purified in house from conditioned medium
# Procedure Text: Assay for inhibitory activities on MMPs (fluorogenic peptide substrate): MMP-9
# Experimental Context: substrate MOCAc-Pro-Leu-Gly-Leu-A2Pr(DNP)-Ala-Arg-NH2
# Method: MMP-9 was isolated and purified by using a combination of procedures described in previous reports as follows. […] The enzymatic activity on MMPs was analyzed by the method described in “C. […] IC50 values were calculated by using the following formula and each fluorescence values of above four methods (A to D). […]
pIC50: −log10 of the molar value.
Assay Readout: pIC50

CC(C)[C@@H](NS(=O)(=O)c1ccc(C#Cc2ccc3ccccc3c2)cc1)C(=O)O [Compound A-5]: 6.48

(1) CC(C)[C@@H](NS(=O)(=O)c1ccc(C#Cc2ccc3ccccc3c2)s1)C(=O)O [Compound B-4]
(2) O=C(O)[C@H](Cc1ccccc1)NS(=O)(=O)c1ccc(C#Cc2ccc3c(c2)OCO3)cc1 [Compound A-22]
(3) O=C(O)[C@H](Cc1c[nH]c2ccccc12)NS(=O)(=O)c1ccc(C#Cc2ccc3ccccc3c2)cc1 [Compound A-15]
(4) O=C(O)[C@H](NS(=O)(=O)c1ccc(C#Cc2ccc3ccccc3c2)cc1)c1ccc(O)cc1 [Compound A-12]
Ordering: ascending pIC50. Your task in answering is to list the labels in the requested order.
4, 3, 1, 2
(4: 5.75, 3: 6.05, 1: 6.28, 2: 6.52)
